Provenance of the data: paper PMC9820316

# System: normal ECG in rats
# METHOD_DESCRIPTION: Effect on a normal electrocardiogram in rats
# Assay type: in vivo, rat
# EXPERIMENTAL_CONDITIONS: 5 mg/kg iv, 0 min (prior to administration); mean ± SD
MEASUREMENT_KIND: HR—heart rate
In your answer, state the number alone without any accompanying words.

Below: 5 compounds and their reported HR—heart rate.
- COMPOUND: "COc1ccccc1N1CCN(Cc2ccc(COc3ccccc3C(N)=O)cc2)CC1.Cl [JJGW12]"
  HR—heart rate: 254.6
- COMPOUND: "COc1ccccc1N1CCN(CCCCOc2ccccc2C(N)=O)CC1.Cl [JJGW07]"
  HR—heart rate: 328.7
- COMPOUND: "Cl.NC(=O)c1ccccc1OCCCCCN1CCN(c2cccc(Cl)c2)CC1 [JJGW02]"
  HR—heart rate: 311.1
- COMPOUND: "Cl.NC(=O)c1ccccc1OCCCCN1CCN(c2cccc(Cl)c2)CC1 [JJGW01]"
  HR—heart rate: 311.8
- COMPOUND: "COc1ccccc1N1CCN(Cc2cccc(COc3ccccc3C(N)=O)c2)CC1.Cl [JJGW11]"
  HR—heart rate: 281.3

# context switch: different compound, same HR—heart rate
q: Tell me the measured HR—heart rate of Cl.NC(=O)c1ccccc1OCCCCCCN1CCN(c2cccc(Cl)c2)CC1 [JJGW03] , please.
a: 286.6

###

Examples of molecules with documented DBP—diastolic blood pressure follow.
# System: normotensive rats
# METHOD_DESCRIPTION: Influence on blood pressure in the normotensive rats
# Type: in vivo, rat
# EXPERIMENTAL_CONDITIONS: 2.5 mg/kg iv, 30 min; mean ± SD
Numeric only. Scale: mmHg

Below: 2 molecules and their reported DBP—diastolic blood pressure.
- SMILES_STRING: "COc1ccccc1N1CCN(Cc2cccc(COc3ccccc3C(N)=O)c2)CC1.Cl"
  TARGET_SYSTEM: "normotensive rats"
  MEASUREMENT_KIND: "DBP—diastolic blood pressure"
  RESULT_UNITS: "mmHg"
  REPORTED_MEASUREMENT: 77.3
- SMILES_STRING: "Cl.NC(=O)c1ccccc1OCCCCCCN1CCN(c2cccc(Cl)c2)CC1"
  TARGET_SYSTEM: "normotensive rats"
  MEASUREMENT_KIND: "DBP—diastolic blood pressure"
  RESULT_UNITS: "mmHg"
  REPORTED_MEASUREMENT: 85.5

# context switch: different molecule, same DBP—diastolic blood pressure
q: Tell me the measured DBP—diastolic blood pressure of COc1ccccc1N1CCN(Cc2ccc(COc3ccccc3C(N)=O)cc2)CC1.Cl , please.
a: 84.0

###

# Tested on: normal ECG in rats
# METHOD_DESCRIPTION: Effect on a normal electrocardiogram in rats
# Assay type: in vivo, rat
# EXPERIMENTAL_CONDITIONS: 5 mg/kg iv, 10 min; mean ± SD; in ms (unit assumed)
MEASUREMENT_KIND: PQ interval
In your answer, state the number alone without any accompanying words.

- SMILES_STRING: "COc1ccccc1N1CCN(Cc2ccc(COc3ccccc3C(N)=O)cc2)CC1.Cl"
  PQ interval: 45.9

q: Tell me the measured PQ interval of COc1ccccc1N1CCN(Cc2cccc(COc3ccccc3C(N)=O)c2)CC1.Cl , please.
a: 47.4

q: Tell me the measured PQ interval of Cl.NC(=O)c1ccccc1OCCCCN1CCN(c2cccc(Cl)c2)CC1 , please.
a: 41.3

q: Tell me the measured PQ interval of Cl.NC(=O)c1ccccc1OCCCCCCN1CCN(c2cccc(Cl)c2)CC1 , please.
a: 40.2

q: Tell me the measured PQ interval of COc1ccccc1N1CCN(CCCCOc2ccccc2C(N)=O)CC1.Cl , please.
a: 40.7

q: Tell me the measured PQ interval of Cl.NC(=O)c1ccccc1OCCCCCN1CCN(c2cccc(Cl)c2)CC1 , please.
a: 42.2

###

Examples of compounds with documented QTc (Bazzett's formula) follow.
# System: normal ECG in rats
# METHOD_DESCRIPTION: Effect on a normal electrocardiogram in rats
# Assay type: in vivo, rat
# EXPERIMENTAL_CONDITIONS: 5 mg/kg iv, 15 min; mean ± SD; in ms (unit assumed)
# Description: The procedure was performed to exclude the negative effects of the tested compounds on the normal ECG, according to the method described earlier. […] Firstly, animals were anesthetized with thiopental (75 mg/kg ip). […] The influence on PQ, QTc interval, QRS complex, and heart rate was evaluated. The Bazzett’s formula: QTc = QT/√RR was used to calculate QTc. All the studied compounds were administered at a dose of 5 mg/kg.
In your answer, state the number alone without any accompanying words.

Below: 5 compounds and their reported QTc (Bazzett's formula).
- SMILES_STRING: "Cl.NC(=O)c1ccccc1OCCCCN1CCN(c2cccc(Cl)c2)CC1"
  QTc (Bazzett's formula): 190.6
- SMILES_STRING: "COc1ccccc1N1CCN(Cc2cccc(COc3ccccc3C(N)=O)c2)CC1.Cl"
  QTc (Bazzett's formula): 184.1
- SMILES_STRING: "COc1ccccc1N1CCN(Cc2ccc(COc3ccccc3C(N)=O)cc2)CC1.Cl"
  QTc (Bazzett's formula): 195.8
- SMILES_STRING: "Cl.NC(=O)c1ccccc1OCCCCCCN1CCN(c2cccc(Cl)c2)CC1"
  QTc (Bazzett's formula): 178.1
- SMILES_STRING: "Cl.NC(=O)c1ccccc1OCCCCCN1CCN(c2cccc(Cl)c2)CC1"
  QTc (Bazzett's formula): 175.1

# context switch: different compound, same QTc (Bazzett's formula)
q: Tell me the measured QTc (Bazzett's formula) of COc1ccccc1N1CCN(CCCCOc2ccccc2C(N)=O)CC1.Cl , please.
a: 192.4

###

Examples of molecules with documented Adrenergic Receptors—pKi α2 follow.
# TARGET_SYSTEM: α2-adrenergic receptors
# METHOD_DESCRIPTION: α2-adrenoceptor radioligand binding assay ([3H]-clonidine, rat cortex)
# EXPERIMENTAL_CONDITIONS: rat cortex tissue, mean ± SEM, n.a. = did not bind at 10^−5 M
In your answer, state the number alone without any accompanying words.

Below: 4 molecules and their reported Adrenergic Receptors—pKi α2.
- MOLECULE: "Cl.NC(=O)c1ccccc1OCCCCN1CCN(c2cccc(Cl)c2)CC1 [JJGW01]"
  REPORTED_MEASUREMENT: 6.13
- MOLECULE: "COc1ccccc1N1CCN(Cc2ccc(COc3ccccc3C(N)=O)cc2)CC1.Cl [JJGW12]"
  REPORTED_MEASUREMENT: 6.11
- MOLECULE: "Cl.NC(=O)c1ccccc1OCCCCCCN1CCN(c2cccc(Cl)c2)CC1 [JJGW03]"
  REPORTED_MEASUREMENT: 5.76
- MOLECULE: "Cl.NC(=O)c1ccccc1OCCCCCN1CCN(c2cccc(Cl)c2)CC1 [JJGW02]"
  REPORTED_MEASUREMENT: 6.20

q: Tell me the measured Adrenergic Receptors—pKi α2 of Clc1cccc(Cl)c1N=C1NCCN1 [Clonidine, clonidine, reference compound] , please.
a: 8.30

###

# Test system: normal ECG in rats
# METHOD_DESCRIPTION: Effect on a normal electrocardiogram in rats
# Assay type: in vivo, rat
# EXPERIMENTAL_CONDITIONS: 5 mg/kg iv, 10 min; mean ± SD; in ms (unit assumed)
Use true (1) when the recorded QRS complex is no lower than 40; use false (0) when it is lower.

- MOLECULE: "Cl.NC(=O)c1ccccc1OCCCCN1CCN(c2cccc(Cl)c2)CC1 [JJGW01]"
  CLASS: "true (1)"
- MOLECULE: "COc1ccccc1N1CCN(Cc2ccc(COc3ccccc3C(N)=O)cc2)CC1.Cl [JJGW12]"
  CLASS: "true (1)"
- MOLECULE: "COc1ccccc1N1CCN(CCCCOc2ccccc2C(N)=O)CC1.Cl [JJGW07]"
  CLASS: "true (1)"
- MOLECULE: "Cl.NC(=O)c1ccccc1OCCCCCN1CCN(c2cccc(Cl)c2)CC1 [JJGW02]"
  CLASS: "false (0)"

q: Given COc1ccccc1N1CCN(Cc2cccc(COc3ccccc3C(N)=O)c2)CC1.Cl [JJGW11] , state whether its QRS complex is at least 40.
a: true (1)

###

# Test system: aconitine-induced arrhythmia model in rats
# METHOD_DESCRIPTION: Prophylactic antiarrhythmic activity in aconitine-induced arrhythmia
# Format: in vivo, rat
# EXPERIMENTAL_CONDITIONS: 5 mg/kg iv 15 min before aconitine 20 μg/kg; number of animals with event
MEASUREMENT_KIND: Extrasystoles

Below: 5 compounds and their reported Extrasystoles.
- COMPOUND: "Cl.NC(=O)c1ccccc1OCCCCCN1CCN(c2cccc(Cl)c2)CC1 [JJGW02]"
  REPORTED_MEASUREMENT: "6/6"
- COMPOUND: "COc1ccccc1N1CCN(Cc2cccc(COc3ccccc3C(N)=O)c2)CC1.Cl [JJGW11]"
  REPORTED_MEASUREMENT: "5/6"
- COMPOUND: "Cl.NC(=O)c1ccccc1OCCCCN1CCN(c2cccc(Cl)c2)CC1 [JJGW01]"
  REPORTED_MEASUREMENT: "5/6"
- COMPOUND: "COc1ccccc1N1CCN(Cc2ccc(COc3ccccc3C(N)=O)cc2)CC1.Cl [JJGW12]"
  REPORTED_MEASUREMENT: "6/6"
- COMPOUND: "COc1ccccc1N1CCN(CCCCOc2ccccc2C(N)=O)CC1.Cl [JJGW07]"
  REPORTED_MEASUREMENT: "6/6"

# context switch: different compound, same Extrasystoles
q: Tell me the measured Extrasystoles of Cl.NC(=O)c1ccccc1OCCCCCCN1CCN(c2cccc(Cl)c2)CC1 [JJGW03] , please.
a: 6/6
